A collection of compounds and their measured MIC
- Test system: S.aureus BB5703
- protocol.notes: In vitro antibacterial activity, agar plate dilution method (MIC)
- Format: cell-based
- condition.description: Staphylococcus aureus; S.aureus BB5703; Mueller Hinton agar, inoculum 10⁶ CFU/ml, 37°C, 16 hours; read-out: Minimum Inhibitory Concentration (MIC: µg/ml)
property.measured: MIC

| compound | property.measured | result |
| --- | --- | --- |
| CO/N=C(\C(=O)N[C@@H]1C(=O)N2C(C(=O)O)=C(COC(C)=O)CS[C@H]12)c1csc(N)n1 [Cefotaxime, reference compound] | MIC | 3.12 µg/mL |
| CO/N=C(\C(=O)NC1C(=O)N2C(C(=O)[O-])=C(C[n+]3ccc4cc(OC(C)=O)c(OC(C)=O)cc4c3)CSC12)c1csc(N)n1 (stereo not drawn) | MIC | 12.5 µg/mL |
| CC(C)(ON=C(C(=O)NC1C(=O)N2C(C(=O)[O-])=C(C[n+]3ccc4ccccc4c3)CSC12)c1csc(N)n1)C(=O)O (stereo not drawn) [Reference Ex. 1, reference compound] | MIC | 25 µg/mL |
| CO/N=C(\C(=O)NC1C(=O)N2C(C(=O)[O-])=C(C[n+]3ccc4cc(O)c(O)cc4c3)CSC12)c1csc(N)n1 (stereo not drawn) | MIC | 3.12 µg/mL |
| CC(C)(ON=C(C(=O)NC1C(=O)N2C(C(=O)[O-])=C(C[n+]3ccc4c(O)cccc4c3)CSC12)c1csc(N)n1)C(=O)O (stereo not drawn) [Reference Ex. 4, reference compound] | MIC | 100 µg/mL |
| C=C(O/N=C(\C(=O)NC1C(=O)N2C(C(=O)[O-])=C(C[n+]3ccc4cc(O)c(O)cc4c3)CSC12)c1csc(N)n1)C(=O)O (stereo not drawn) | MIC | 50 µg/mL |
| Nc1nc(/C(=N/OC2(C(=O)O)CCCC2)C(=O)NC2C(=O)N3C(C(=O)[O-])=C(C[n+]4ccc5cc(O)c(O)cc5c4)CSC23)cs1 (stereo not drawn) | MIC | 50 µg/mL |
| CON=C(C(=O)NC1C(=O)N2C(C(=O)[O-])=C(C[n+]3ccc4c(O)cccc4c3)CS[C@H]12)c1csc(N)n1 (stereo partly drawn) [Reference Ex. 2, reference compound] | MIC | 3.12 µg/mL |
| C=CCON=C(C(=O)NC1C(=O)N2C(C(=O)[O-])=C(C[n+]3ccc4cc(O)c(O)cc4c3)CS[C@H]12)c1csc(N)n1 (stereo partly drawn) | MIC | 6.25 µg/mL |
| CC(C)ON=C(C(=O)NC1C(=O)N2C(C(=O)[O-])=C(C[n+]3ccc4cc(O)c(O)cc4c3)CS[C@H]12)c1csc(N)n1 (stereo partly drawn) | MIC | 6.25 µg/mL |
| C#CCON=C(C(=O)NC1C(=O)N2C(C(=O)[O-])=C(C[n+]3ccc4cc(O)c(O)cc4c3)CS[C@H]12)c1csc(N)n1 (stereo partly drawn) | MIC | 6.25 µg/mL |
| CON=C(C(=O)NC1C(=O)N2C(C(=O)[O-])=C(C[n+]3ccc4cccc(O)c4c3)CS[C@H]12)c1csc(N)n1 (stereo partly drawn) [Reference Ex. 3, reference compound] | MIC | 3.12 µg/mL |

---

Entries and their MIC
- Tested on: E.coli GN5482
- protocol.notes: In vitro antibacterial activity, agar plate dilution method (MIC)
- Assay type: cell-based
- condition.description: Escherichia coli; E.coli GN5482 (β-Lactamase-producing strain); Mueller Hinton agar, inoculum 10⁶ CFU/ml, 37°C, 16 hours; read-out: Minimum Inhibitory Concentration (MIC: µg/ml)
property.measured: MIC (µg/mL)

| compound | property.measured | result.number |
| --- | --- | --- |
| C=C(O/N=C(\C(=O)NC1C(=O)N2C(C(=O)[O-])=C(C[n+]3ccc4cc(O)c(O)cc4c3)CSC12)c1csc(N)n1)C(=O)O (stereo not drawn) [Ex. 6] | MIC | 0.2 |
| CON=C(C(=O)NC1C(=O)N2C(C(=O)[O-])=C(C[n+]3ccc4c(O)cccc4c3)CS[C@H]12)c1csc(N)n1 (stereo partly drawn) [Reference Ex. 2, reference compound] | MIC | 0.2 |
| CO/N=C(\C(=O)NC1C(=O)N2C(C(=O)[O-])=C(C[n+]3ccc4cc(OC(C)=O)c(OC(C)=O)cc4c3)CSC12)c1csc(N)n1 (stereo not drawn) [Ex. 8] | MIC | 0.78 |
| CO/N=C(\C(=O)NC1C(=O)N2C(C(=O)[O-])=C(C[n+]3ccc4cc(O)c(O)cc4c3)CSC12)c1csc(N)n1 (stereo not drawn) [Ex. 1] | MIC | 0.39 |
| CO/N=C(\C(=O)N[C@@H]1C(=O)N2C(C(=O)O)=C(COC(C)=O)CS[C@H]12)c1csc(N)n1 [Cefotaxime, reference compound] | MIC | 0.39 |
| Nc1nc(/C(=N/OC2(C(=O)O)CCCC2)C(=O)NC2C(=O)N3C(C(=O)[O-])=C(C[n+]4ccc5cc(O)c(O)cc5c4)CSC23)cs1 (stereo not drawn) [Ex. 5] | MIC | 0.2 |

---

- Test system: K.pneumoniae PCI-602
- protocol.notes: In vitro antibacterial activity, agar plate dilution method (MIC)
- Assay type: cell-based
- condition.description: Klebsiella pneumoniae, PCI602; K.pneumoniae PCI-602; Mueller Hinton agar, inoculum 10⁶ CFU/ml, 37°C, 16 hours; read-out: Minimum Inhibitory Concentration (MIC: µg/ml)
Property: MIC; scope: individual molecules

| molecule | MIC |
| --- | --- |
| C#CCON=C(C(=O)NC1C(=O)N2C(C(=O)[O-])=C(C[n+]3ccc4cc(O)c(O)cc4c3)CS[C@H]12)c1csc(N)n1 (stereo partly drawn) [Ex. 7] | < 0.006 µg/mL |
| CON=C(C(=O)NC1C(=O)N2C(C(=O)[O-])=C(C[n+]3ccc4cccc(O)c4c3)CS[C@H]12)c1csc(N)n1 (stereo partly drawn) [Reference Ex. 3, reference compound] | < 0.006 µg/mL |
| CC(C)(ON=C(C(=O)NC1C(=O)N2C(C(=O)[O-])=C(C[n+]3ccc4ccccc4c3)CSC12)c1csc(N)n1)C(=O)O (stereo not drawn) [Reference Ex. 1, reference compound] | 0.0125 µg/mL |
| C=CCON=C(C(=O)NC1C(=O)N2C(C(=O)[O-])=C(C[n+]3ccc4cc(O)c(O)cc4c3)CS[C@H]12)c1csc(N)n1 (stereo partly drawn) [Ex. 3] | < 0.006 µg/mL |
| CO/N=C(\C(=O)N[C@@H]1C(=O)N2C(C(=O)O)=C(COC(C)=O)CS[C@H]12)c1csc(N)n1 [Cefotaxime, reference compound] | < 0.006 µg/mL |
| CO/N=C(\C(=O)NC1C(=O)N2C(C(=O)[O-])=C(C[n+]3ccc4cc(O)c(O)cc4c3)CSC12)c1csc(N)n1 (stereo not drawn) [Ex. 1] | < 0.006 µg/mL |

---

- Test system: E.cloacae Nek 39
- protocol.notes: In vitro antibacterial activity, agar plate dilution method (MIC)
- Assay type: cell-based
- condition.description: Enterobacter cloacae, NEK39; E.cloacae Nek 39 (β-Lactamase-producing strain); Mueller Hinton agar, inoculum 10⁶ CFU/ml, 37°C, 16 hours; read-out: Minimum Inhibitory Concentration (MIC: µg/ml)

| compound | result.comparator | MIC [µg/mL] |
| --- | --- | --- |
| Nc1nc(/C(=N/OC2(C(=O)O)CCCC2)C(=O)NC2C(=O)N3C(C(=O)[O-])=C(C[n+]4ccc5cc(O)c(O)cc5c4)CSC23)cs1 (stereo not drawn) | < | 0.006 |
| C#CCON=C(C(=O)NC1C(=O)N2C(C(=O)[O-])=C(C[n+]3ccc4cc(O)c(O)cc4c3)CS[C@H]12)c1csc(N)n1 (stereo partly drawn) | = | 0.2 |
| CO/N=C(\C(=O)NC1C(=O)N2C(C(=O)[O-])=C(C[n+]3ccc4cc(O)c(O)cc4c3)CSC12)c1csc(N)n1 (stereo not drawn) | = | 0.1 |

---

- Tested on: Ps.aeruginosa IFO3445
- protocol.notes: In vitro antibacterial activity, agar plate dilution method (MIC)
- Type: cell-based
- condition.description: Pseudomonas aeruginosa; Ps.aeruginosa IFO3445; Mueller Hinton agar, inoculum 10⁶ CFU/ml, 37°C, 16 hours; read-out: Minimum Inhibitory Concentration (MIC: µg/ml)
Rule: MIC below 0.8 µg/mL gives Satisfied. Equal to or above 0.8 µg/mL gives Not satisfied.

| molecule | answer.label |
| --- | --- |
| CON=C(C(=O)NC1C(=O)N2C(C(=O)[O-])=C(C[n+]3ccc4cccc(O)c4c3)CS[C@H]12)c1csc(N)n1 (stereo partly shown) [Reference Ex. 3, reference compound] | Not satisfied |
| Nc1nc(/C(=N/OC2(C(=O)O)CCCC2)C(=O)NC2C(=O)N3C(C(=O)[O-])=C(C[n+]4ccc5cc(O)c(O)cc5c4)CSC23)cs1 (stereo not shown) | Satisfied |
| CON=C(C(=O)NC1C(=O)N2C(C(=O)[O-])=C(C[n+]3ccc4c(O)cccc4c3)CS[C@H]12)c1csc(N)n1 (stereo partly shown) [Reference Ex. 2, reference compound] | Not satisfied |
| CC(C)(ON=C(C(=O)NC1C(=O)N2C(C(=O)[O-])=C(C[n+]3ccc4c(O)cccc4c3)CSC12)c1csc(N)n1)C(=O)O (stereo not shown) [Reference Ex. 4, reference compound] | Not satisfied |

Source: patent EP0238060B1
